- Target Under Test: 5-HT2C (Homo sapiens (Human), UniProt P28335)
- Sequence (P28335 whole entry, looked up): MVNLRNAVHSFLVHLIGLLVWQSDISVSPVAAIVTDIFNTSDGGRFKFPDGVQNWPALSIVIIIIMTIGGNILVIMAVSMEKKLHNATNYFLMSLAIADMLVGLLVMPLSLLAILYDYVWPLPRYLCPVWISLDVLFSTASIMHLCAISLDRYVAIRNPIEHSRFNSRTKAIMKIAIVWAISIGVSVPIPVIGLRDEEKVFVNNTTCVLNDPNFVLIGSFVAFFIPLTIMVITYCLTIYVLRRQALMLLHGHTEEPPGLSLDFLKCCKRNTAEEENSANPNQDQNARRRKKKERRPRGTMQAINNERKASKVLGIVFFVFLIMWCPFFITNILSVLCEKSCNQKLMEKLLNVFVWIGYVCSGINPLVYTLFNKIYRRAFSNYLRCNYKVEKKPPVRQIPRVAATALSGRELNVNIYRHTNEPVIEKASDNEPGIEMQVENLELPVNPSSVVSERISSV
- Procedure Details: Ca2+/Fluo-4 assay, stable h5-HT2C-HEK293 cell line;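 also: Agonist-induced intracellular Ca2+ rise read by Fluo-4 fluorescence in HEK293 cells stably expressing the human 5-HT2C receptor, each compound run in duplicate on three or more occasions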
- Assay type: cell-based
- Run Conditions: agonist potency, n = 3-4; read-out: 5-HT2C [pEC50 ± S.E.M.] (converted)

Compound | Target Under Test | EC50 (µM)
COc1cc(C(F)(F)F)c(OC)cc1C1CCCNC1C.Cl (centres unmarked) [Compound 35, hydrochloride] | 5-HT2C (Homo sapiens (Human), UniProt P28335) | 2.95
COc1cc(C(F)(F)F)c(OC)cc1[C@H]1CCNC1 [Compound 5] | 5-HT2C (Homo sapiens (Human), UniProt P28335) | 0.0407
COc1cc([C@H]2CCNC2)c(OC)cc1Br [Compound 3] | 5-HT2C (Homo sapiens (Human), UniProt P28335) | 0.0257
COc1cc([C@H]2CCCNC2)c(OC)cc1Cl [Compound 9] | 5-HT2C (Homo sapiens (Human), UniProt P28335) | 1.78
COc1cc(C(F)(F)F)c(F)cc1[C@H]1CCCNC1.Cl [Compound 50, hydrochloride] | 5-HT2C (Homo sapiens (Human), UniProt P28335) | 1.78
COc1cc(C2CC[C@@H](c3ccccc3OC)NC2)c(OC)cc1Br (some centres unmarked) [Compound 8a, reference compound] | 5-HT2C (Homo sapiens (Human), UniProt P28335) | 1.95
CCOc1cc(C(F)(F)F)c(OC)cc1[C@H]1CCCNC1.Cl [Compound 29, hydrochloride] | 5-HT2C (Homo sapiens (Human), UniProt P28335) | 2.75
CCSc1cc([C@H]2CCCNC2)c(OC)cc1C(F)(F)F.Cl [Compound 46, hydrochloride] | 5-HT2C (Homo sapiens (Human), UniProt P28335) | 1.07
